Test system: Aspergillus terreus
Assay: Antifungal activity against Aspergillus terreus ATCC MYA-3633 after 48 hrs by broth dilution method
Type: functional
Settings: Aspergillus terreus, ATCC MYA-3633, 48 h
Reported Property: MIC (µM)

* CCCCCCCCCCN1CCN(CC(O)(Cn2cncn2)c2ccc(F)cc2F)CC1 (stereo unspecified) | 2.1
* CCCCCCCCCCCN1CCN(CC(O)(Cn2cncn2)c2ccc(F)cc2F)CC1 (stereo unspecified) | 4.1
* CCCCCCCCCCCCN1CCNCC1 | 30.7
* CCCCCCCCCCN1CCNCC1 | 68.9

###

Measured MIC of individual entries
Tested on: Candida albicans
Experiment: Antifungal activity against itraconazole and fluconazole resistant Candida albicans ATCC MYA-1003 after 48 hrs by broth dilution method
Type: functional
Conditions: Candida albicans, ATCC MYA-1003, 48 h
Reported Property: MIC (µM)

- CCCCCCCCCCN1CCNCC1: 68.9
- CCCCCCCCCCCCCCN1CCNCC1: 6.9
- CCCCCCCCCN1CCN(CC(O)(Cn2cncn2)c2ccc(F)cc2F)CC1 (centres undefined): 35.2
- CCCCCCCCCCCN1CCNCC1: 64.8
- CN1CCN(CC(O)(Cn2cncn2)c2ccc(F)cc2F)CC1 (centres undefined): 92.8
- CCCCCCCCCCCCN1CCN(CC(O)(Cn2cncn2)c2ccc(Cl)cc2Cl)CC1 (centres undefined): 3.7
- CCCCCCCCCCCN1CCN(CC(O)(Cn2cncn2)c2ccc(F)cc2F)CC1 (centres undefined): 32.8
- CCCCCCCCCCCCN1CCNCC1: 15.3
- CCCCCCCCCCCCCN1CCNCC1: 7.2
- CC[C@H](C)C[C@H](C)CCCCCCCCC(=O)N[C@H]1C[C@@H](O)[C@@H](NCCN)NC(=O)[C@@H]2[C@@H](O)CCN2C(=O)[C@H]([C@H](O)CCN)NC(=O)[C@H]([C@H](O)[C@@H](O)c2ccc(O)cc2)NC(=O)[C@@H]2C[C@@H](O)CN2C(=O)[C@H]([C@@H](C)O)NC1=O [CASPOFUNGIN]: 0.4
- CCCCCCCCCCCCCCN1CCN(CC(O)(Cn2cncn2)c2ccc(F)cc2F)CC1 (centres undefined): 3.8
- CCCCCCCCCCCCN1CCN(CC(O)(Cn2cncn2)c2ccc(F)cc2F)CC1 (centres undefined): 31.7
- OC(CN1CCOCC1)(Cn1cncn1)c1ccc(F)cc1F (centres undefined): 96.5
- CCCCCCCCCCCCCN1CCN(CC(O)(Cn2cncn2)c2ccc(F)cc2F)CC1 (centres undefined): 7.7
- CCCCCCCCCCN1CCN(CC(O)(Cn2cncn2)c2ccc(F)cc2F)CC1 (centres undefined): 8.4
